Observed MIC, system Bacillus subtilis (ATCC6633).

molecule: CCCCC(CCCC(O)C(O)CCCCCCCCCCCCCCC(O)C(=O)O)OC1OCC(O)C(O)C1OC1OCC(OC(C)=O)C(O)C1OC1OC(CO)C(O)C(O)C1O (centres unmarked) [[14]]
MIC: 1.6 µg/mL
--
molecule: CCCCC(CCCC(O)C(O)CCCCCCCCCCCCCCC(O)C(=O)O)OC1OCC(O)C(O)C1OC1OCC(O)C(O)C1OC1OC(CO)C(O)C(O)C1O (centres unmarked) [[16], Glykenin DGC or Glykenin DGB]
MIC: 3.1 µg/mL
--
molecule: CCCCC(CCCC(O)C(O)CCCCCCCCCCCCCCC(O)C(=O)O)OC1OCC(O)C(O)C1OC1OCC(OC(C)=O)C(O)C1OC1OC(COC(=O)CC(C)C)C(O)C(O)C1O (centres unmarked) [[1]]
MIC: 3.1 µg/mL
--
molecule: CCCCC(CCCC(O)C(O)CCCCCCCCCCCCCCC(O)C(=O)O)OC1OCC(O)C(O)C1OC1OCC(O)C(O)C1OC1OC(COC(=O)CC(C)C)C(O)C(O)C1O (centres unmarked) [[12]]
MIC: 1.6 µg/mL
--
molecule: CCCCC(CCCC(O)C(O)CCCCCCCCCCCCCCC(O)C(=O)O)OC1OCC(O)C(O)C1OC1OCC(O)C(O)C1OC1OC(COC(=O)CC(C)C)C(OC(C)=O)C(O)C1O (centres unmarked) [[13]]
MIC: 3.1 µg/mL
